- system.name: JAK3 (Homo sapiens, UniProt P52333)
- Construct: endogenous in cells
- Sequence (P52333 1-1124): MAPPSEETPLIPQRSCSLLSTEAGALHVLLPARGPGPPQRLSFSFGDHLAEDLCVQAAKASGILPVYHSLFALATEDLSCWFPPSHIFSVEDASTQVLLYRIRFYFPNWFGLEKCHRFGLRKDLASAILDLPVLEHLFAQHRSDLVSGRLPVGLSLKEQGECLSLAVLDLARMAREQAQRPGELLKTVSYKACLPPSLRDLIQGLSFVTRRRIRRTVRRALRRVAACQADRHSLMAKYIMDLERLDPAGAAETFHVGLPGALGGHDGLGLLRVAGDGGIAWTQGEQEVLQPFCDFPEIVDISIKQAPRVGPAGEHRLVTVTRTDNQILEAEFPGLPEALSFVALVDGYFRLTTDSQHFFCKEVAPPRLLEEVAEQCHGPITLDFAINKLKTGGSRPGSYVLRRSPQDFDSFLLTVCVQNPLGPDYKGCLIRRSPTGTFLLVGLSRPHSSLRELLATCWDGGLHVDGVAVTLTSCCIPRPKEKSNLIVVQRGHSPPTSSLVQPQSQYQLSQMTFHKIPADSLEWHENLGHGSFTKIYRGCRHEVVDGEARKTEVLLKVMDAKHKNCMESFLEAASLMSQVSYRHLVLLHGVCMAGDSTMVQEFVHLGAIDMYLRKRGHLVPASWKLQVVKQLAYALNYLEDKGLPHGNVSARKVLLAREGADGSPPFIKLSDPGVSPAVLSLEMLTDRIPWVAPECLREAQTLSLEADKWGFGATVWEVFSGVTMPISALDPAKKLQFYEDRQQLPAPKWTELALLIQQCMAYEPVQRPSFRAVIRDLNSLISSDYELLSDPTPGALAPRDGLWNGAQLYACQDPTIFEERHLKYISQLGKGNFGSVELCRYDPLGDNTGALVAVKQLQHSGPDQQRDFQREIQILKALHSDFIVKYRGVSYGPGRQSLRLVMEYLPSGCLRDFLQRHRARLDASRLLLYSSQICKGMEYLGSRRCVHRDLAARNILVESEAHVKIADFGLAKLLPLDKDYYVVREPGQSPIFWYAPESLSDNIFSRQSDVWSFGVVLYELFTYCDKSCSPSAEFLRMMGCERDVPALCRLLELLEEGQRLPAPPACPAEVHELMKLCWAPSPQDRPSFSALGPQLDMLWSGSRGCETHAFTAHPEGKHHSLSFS
- protocol.notes: Kinobeads assay, JAK3
- experimental.conditions: mixed Molt4/Ramos cell lysate, dot blot detection
# IC50 per record follows

# count of solved cases: 10
{"molecule": "CNC(=O)c1ccc(-n2ncc3cnc(Nc4cnn(C)c4)nc32)cc1 [Example 136]", "IC50": "100 to 1000 nM"}
{"molecule": "Cn1cc(Nc2ncc3cnn(Cc4cccc(N5CCCC5)n4)c3n2)cn1 [Example 188]", "IC50": "100 to 1000 nM"}
{"molecule": "Cn1cc(Nc2ncc3cnn(Cc4ccccc4F)c3n2)cc1C(=O)NCC#N [Example 245]", "IC50": "< 100 nM"}
{"molecule": "Cc1cc(Nc2ncc3cnn(Cc4ccccc4C#N)c3n2)nn1C [Example 9]", "IC50": "100 to 1000 nM"}
{"molecule": "Cn1cc(Nc2ncc3cnn(Cc4ccccc4NS(=O)(=O)CC(F)(F)F)c3n2)cn1 [Example 134]", "IC50": "< 100 nM"}
{"molecule": "Cn1cc(Nc2ncc3cnn(Cc4cc(F)ccc4F)c3n2)cn1 [Example 30]", "IC50": "< 100 nM"}
{"molecule": "COc1cccc(Cn2ncc3cnc(Nc4cnn(C)c4)nc32)c1 [Example 69]", "IC50": "< 100 nM"}
{"molecule": "Cn1cc(Nc2ncc3cnn(Cc4c(F)ccc(F)c4F)c3n2)cn1 [Example 98]", "IC50": "< 100 nM"}
{"molecule": "Cn1cc(Nc2ncc3cnn(Cc4ccccc4N4CCOCC4)c3n2)cn1 [Example 180]", "IC50": "100 to 1000 nM"}
{"molecule": "OCCn1cc(Nc2ncc3cnn(Cc4ccccc4C4CC4)c3n2)cn1 [Example 260]", "IC50": "< 100 nM"}

Could you share which IC50 value was measured for CN(C)C(=O)c1cc(Nc2ncc3cnn(Cc4ccccc4F)c3n2)cn1C [Example 246] ?
< 100 nM

Then Cc1nn(CC(F)F)cc1Nc1ncc2cnn(Cc3ccccc3C(N)=O)c2n1 [Example 43] ?
100 to 1000 nM

Then Cn1cc(Nc2ncc3cnn(Cc4cccc(N5CCOCC5)c4)c3n2)cc1C(=O)N1CCOCC1 [Example 248] ?
< 100 nM

Then COc1ccccc1Cn1ncc2cnc(Nc3cnn(C)c3)nc21 [Example 87] ?
< 100 nM

Then COc1nn(CC(F)F)cc1Nc1ncc2cnn(Cc3ccccc3C(N)=O)c2n1 [Example 36] ?
100 to 1000 nM

Then OCCn1cc(Nc2ncc3cnn(Cc4cccc(F)n4)c3n2)cn1 [Example 314] ?
< 100 nM

Then Cn1cc(Nc2ncc3cnn(Cc4ccccc4OC(F)(F)F)c3n2)cn1 [Example 85] ?
< 100 nM

Then Cc1ccc(F)cc1Cn1ncc2cnc(Nc3cnn(C)c3)nc21 [Example 116] ?
< 100 nM

Then Cn1cc(Nc2ncc3cnn(Cc4ccccc4Cl)c3n2)cn1 [Example 27] ?
< 100 nM

Then Fc1ccccc1Cn1ncc2cnc(Nc3cnn(CCN4CCOCC4)c3)nc21 [Example 124] ?
< 100 nM

----------
# IC50 per record follows
- system.name: JAK3 (Homo sapiens, UniProt P52333)
- Construct: endogenous in cells
- protocol.notes: Kinobeads assay, JAK3
- experimental.conditions: mixed Molt4/Ramos cell lysate, dot blot detection

# count of solved cases: 2
{"compound": "Cn1cc(Nc2ncc3cnn(Cc4ccccc4C(F)(F)F)c3n2)cn1 [Example 65]", "IC50": "< 100 nM"}
{"compound": "COc1nn(CCO)cc1Nc1ncc2cnn(Cc3ccccc3C#N)c2n1 [Example 44]", "IC50": "< 100 nM"}

Could you share which IC50 value was measured for Fc1ccc(F)c(Cn2ncc3cnc(Nc4cnn(CC(F)F)c4)nc32)c1 [Example 129] ?
< 100 nM

Then CN1CCN(CCCn2cc(Nc3ncc4cnn(Cc5ccccc5F)c4n3)cn2)CC1 [Example 194] ?
100 to 1000 nM

Then Cc1ccc(O)cc1Cn1ncc2cnc(Nc3cnn(C)c3)nc21 [Example 189] ?
100 to 1000 nM

Then Fc1ccccc1Cn1ncc2cnc(Nc3cnn(CC4CCNC4)c3)nc21 (centres unmarked) [Example 306] ?
< 100 nM

Then CC(C)c1cccc(Cn2ncc3cnc(Nc4cnn(C)c4)nc32)c1 [Example 100] ?
100 to 1000 nM

Then Cn1cc(Nc2ncc3cnn(Cc4cccc(Cl)c4)c3n2)cn1 [Example 70] ?
< 100 nM

Then Cn1cc(Nc2ncc3cnn(Cc4ccccc4F)c3n2)cc1C(=O)N1CCOCC1 [Example 244] ?
< 100 nM

Then Cn1cc(Nc2ncc3cnn(Cc4cc(Cl)ccc4F)c3n2)cn1 [Example 64] ?
< 100 nM

Then Fc1ccccc1Cn1ncc2cnc(Nc3cn[nH]c3)nc21 [Example 88] ?
< 100 nM

----------
- system.name: JAK3 (Homo sapiens)
- Construct: endogenous in cells
- protocol.notes: Kinobeads assay, JAK3
- experimental.conditions: mixed Molt4/Ramos cell lysate, dot blot detection
readout.kind: IC50

# count of solved cases: 5
{"compound": "Cn1ccc(Nc2ncc3cnn(Cc4ccccc4C#N)c3n2)n1 [Example 3]", "IC50": "100 to 1000 nM"}
{"compound": "COCCn1cc(Nc2ncc3cnn(Cc4ccccc4C#N)c3n2)cn1 [Example 10]", "IC50": "< 100 nM"}
{"compound": "Cn1cc(Nc2ncc3cnn(Cc4ccccc4C4CC4)c3n2)cn1 [Example 111]", "IC50": "< 100 nM"}
{"compound": "Cn1cc(Nc2ncc3cnn(Cc4cccc(OCCN5CCCCC5)c4)c3n2)cn1 [Example 167]", "IC50": "< 100 nM"}
{"compound": "Cn1cc(Nc2ncc3cnn(Cc4c(F)cccc4C(F)(F)F)c3n2)cn1 [Example 164]", "IC50": "< 100 nM"}

Could you share which IC50 value was measured for OCCn1cc(Nc2ncc3cnn(Cc4c(F)ccc(F)c4F)c3n2)cn1 [Example 254] ?
< 100 nM

Then Cn1cc(Nc2ncc3cnn(Cc4ccccc4C(N)=O)c3n2)cn1 [Example 16] ?
< 100 nM

Then Fc1ccccc1Cn1ncc2cnc(Nc3cnn(CCCN4CCC4)c3)nc21 [Example 177] ?
< 100 nM

Then COCCn1cc(Nc2ncc3cnn(Cc4ccccc4F)c3n2)cn1 [Example 28] ?
< 100 nM

Then NS(=O)(=O)c1ccc(-n2ncc3cnc(Nc4cnn(CCO)c4)nc32)cc1 [Example 121] ?
< 100 nM

Then Cn1cc(Nc2ncc3cnn(Cc4ccc(F)c(F)c4)c3n2)cn1 [Example 78] ?
100 to 1000 nM

Then COc1cc(F)cc(Cn2ncc3cnc(Nc4cnn(C)c4)nc32)c1 [Example 104] ?
< 100 nM
